- System: Myzus persicae
- EXPERIMENT_SUMMARY: Myzus persicae (green peach aphid) pea seedling root uptake test
- MEASUREMENT_SETUP: 144 h, read-out: control of Myzus persicae
Reported pest or weed control at 24 ppm by item:

Below, 3 compounds whose answers are already recorded.
Reported pest or weed control at 24 ppm of O=C(OCCNC(=S)NC1CCc2c(F)cccc21)c1cncc(Br)c1 (stereo not shown) [Compound 11.049] : ≥ 80%

Reported pest or weed control at 24 ppm of O=C(Cc1cccc(C(F)(F)F)c1)OCCNC(=S)NC1CCc2c(F)cccc21 (stereo not shown) [Compound 11.065] : ≥ 80%

Reported pest or weed control at 24 ppm of O=C(OCCNC(=S)NC1CCc2c(F)cccc21)c1ccc(Cl)cc1 (stereo not shown) [Compound 11.010] : ≥ 80%

Continue with the next compound.
Reported pest or weed control at 24 ppm of N#Cc1ccc(C(=O)OCCNC(=S)NC2CCc3c(F)cccc32)cc1 (stereo not shown) [Compound 11.005] : ≥ 80%
